Entry source: paper PMC3280250

Target: T1, Pax2 (Giardia lamblia, UniProt A8B733 1-302)
T1 sequence: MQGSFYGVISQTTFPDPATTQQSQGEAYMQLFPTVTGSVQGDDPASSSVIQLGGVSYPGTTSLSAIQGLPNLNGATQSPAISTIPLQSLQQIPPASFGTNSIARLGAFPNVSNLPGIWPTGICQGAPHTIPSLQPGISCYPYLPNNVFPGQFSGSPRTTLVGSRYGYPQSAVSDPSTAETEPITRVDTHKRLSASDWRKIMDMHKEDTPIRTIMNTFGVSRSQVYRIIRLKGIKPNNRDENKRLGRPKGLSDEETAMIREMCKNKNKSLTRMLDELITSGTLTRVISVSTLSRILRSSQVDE
Assay: EMSA; EMSA: 0.02 pmol 5'-32P probe, 5 ng protein, 20 ul, 0.5 ug poly(dI-dC), 15 min at room temperature, 6% acrylamide gel; buffer, salt and pH only by reference [31]
Details: protein: recombinant; tags: C-terminal V5-His (pET101/D-TOPO); label: 5'-32P
readout label: binding result

poly(A) with TTT insertion (dsDNA) DNA 1: AAAAAAAAAATTTAAAAAAAAAA DNA 2: TTTTTTTTTTAAATTTTTTTTTT | binds
ran-51/-20 (dsDNA) DNA 1: TAAAATAAATTAAATCGAAATTAAAACTTTAA DNA 2: TTAAAGTTTTAATTTCGATTTAATTTATTTTA | binds
poly(A) with TC insertion (dsDNA) DNA 1: AAAAAAAAAAATCAAAAAAAAAA DNA 2: TTTTTTTTTTGATTTTTTTTTTT | binds
